- TEST TARGET: T1, human CXCR4-enriched lipoparticles (Homo sapiens, UniProt P61073)
- T1 construct: purchased Integral Molecular, Philadelphia Pa; LEV101
- T1 sequence (P61073 whole entry): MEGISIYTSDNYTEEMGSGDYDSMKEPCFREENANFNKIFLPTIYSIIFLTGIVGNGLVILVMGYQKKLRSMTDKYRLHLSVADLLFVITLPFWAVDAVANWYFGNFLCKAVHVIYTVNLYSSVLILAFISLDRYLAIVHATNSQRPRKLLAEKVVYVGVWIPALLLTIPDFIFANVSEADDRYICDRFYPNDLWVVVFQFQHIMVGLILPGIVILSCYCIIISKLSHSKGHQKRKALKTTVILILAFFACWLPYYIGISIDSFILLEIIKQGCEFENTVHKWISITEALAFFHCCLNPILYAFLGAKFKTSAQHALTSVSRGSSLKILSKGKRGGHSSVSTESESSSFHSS
- EXPERIMENT DESCRIPTION: Biosensor affinity measurement of Fabs on CXCR4-enriched lipoparticles
- Assay type: binding
- CONDITION INFO: Fab; kinetic titration
PROPERTY LABEL: Ka (1/MS)

Reported Ka (1/MS) ( h3G10.2.37 VH/h3G10.2.72 VL: Fab; VH SEQ ID NO:35, VL SEQ ID NO:49 (antibody, V domains shown, Fab) VH: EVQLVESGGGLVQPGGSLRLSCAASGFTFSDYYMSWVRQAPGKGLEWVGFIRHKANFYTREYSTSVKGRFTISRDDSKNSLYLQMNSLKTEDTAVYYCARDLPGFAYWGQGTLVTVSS VL: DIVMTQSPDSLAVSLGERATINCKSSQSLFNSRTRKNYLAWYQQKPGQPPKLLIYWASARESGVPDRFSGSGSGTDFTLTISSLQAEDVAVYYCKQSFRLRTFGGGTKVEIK ) = 2.30E+06 1/MS
